- assay system: T1, biotinylated human VWF cysteine knot (CK) domain construct (human, biotin on the in vitro biotinylation tag (residue not stated); one N-glycan)
- T1 construct: Disulfide-linked homodimer; also called biotinylated human VWF CK domain; human VWF CK domain construct
- T1 chain: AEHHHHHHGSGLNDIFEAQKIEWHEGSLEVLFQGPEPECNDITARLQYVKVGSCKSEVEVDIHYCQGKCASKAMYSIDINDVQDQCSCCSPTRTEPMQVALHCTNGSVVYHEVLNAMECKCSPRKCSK
- protocol text: SPR, scFv captured on anti-SV5, pH 7.4
observed property: binding result

- 1675_Lib1_scFv (scFv, not shown: small tags and cut ends) scFv: QVQLVQSGAEVKKPGASVKVSCKVSGVTLTSSAISWVRQAPGKGLEWMGGITPIFGTPIYAQKFQGRVTMTEDTSTDTAYMELSSLKSEDTAVYYCATDYGYPFWAFDIWGQGTMVTVSSSGGSTITSYNVYYTKLSSSGTDIQMTQSPSSVSASVGDRVTITCRASQGIYSALAWYQQKPGKAPKLLIYESSKRPSGVPSRFSGSGSGTDFTLTISSLQPEDFANYYCEQYASSPPTFGGGTKVEIK: binds
- Lib4_P2_A3_scFv (scFv, not shown: small tags and cut ends) scFv: QVQLQESGPGLVKPSQTLSLTCTVSGVSLSTSDYSWSWIRQPPGKGLEWIGYISPPGRSDYNPSLKSRVTMSVDTSKNQFSLKVNSVTAADTAVYYCARHSSSGWYSTYDFDSWGQGTMVTVSSSGGSTITSYNVYYTKLSSSGTEIVMTQSPATLSLSPGERATLSCRASQNIHSNLAWYQQKPGQAPRLLIYGATTRATGIPARFSGSGSGTDFTLTISSLEPEDFAVYYCQQSYTTPLTFGGGTKVEIK: binds

FYI, the data here is from patent US20250154283A1.
